EXPERIMENT_NOTES: self-splicing fitness, log relative to wild type (ln ratio); higher = more splicing; Tetrahymena group I intron in knt gene, E. coli kanamycin selection, DiMSum; sequences stand for … in CUCUCU…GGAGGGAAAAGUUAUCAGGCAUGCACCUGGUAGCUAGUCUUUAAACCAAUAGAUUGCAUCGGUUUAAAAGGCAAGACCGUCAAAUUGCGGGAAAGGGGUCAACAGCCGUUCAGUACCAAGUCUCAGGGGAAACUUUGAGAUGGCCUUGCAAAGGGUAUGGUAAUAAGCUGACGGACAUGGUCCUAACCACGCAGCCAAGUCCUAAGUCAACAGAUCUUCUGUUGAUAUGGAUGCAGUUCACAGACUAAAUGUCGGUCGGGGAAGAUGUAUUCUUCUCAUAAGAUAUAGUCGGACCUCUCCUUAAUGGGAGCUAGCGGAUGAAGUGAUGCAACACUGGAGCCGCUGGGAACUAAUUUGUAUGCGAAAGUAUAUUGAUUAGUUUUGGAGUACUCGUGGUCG;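 also: selection with 25 µg/mL kanamycin versus none on LB agar overnight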
REPORTED_CONDITIONS: 30 °C
Short version: self-splicing fitness (ln) at least -2 is 1, less is 0.

UCAGAGCAAUAUUACGCCUA = 0
GGCUAGCAAUAUUACGGAGU = 0
UGUAAGCAAUAUUACGUUUU = 0
UCCAAGCAAUAUUACGGAGG = 0
AUUGAGCAAUAUUACGUCUU = 1
GCCGAGCAAUAUUACGGGGU = 0
ACAUAGCAAUAUUACGAUAG = 0
GAUGAGCAAUAUUACGUUAA = 0
GUCUAGCAAUAUUACGGAGC = 1
CGCUAGCAAUAUUACGUGCU = 1
CCCCAGCAAUAUUACGCUUU = 0
CUACAGCAAUAUUACGAAUU = 0
CCGAAGCAAUAUUACGACAG = 1
AUGCAGCAAUAUUACGUGGC = 0
ACACAGCAAUAUUACGGCUC = 1
UCUAAGCAAUAUUACGUGUC = 0
CUAAAGCAAUAUUACGCCAC = 0
UUCCAGCAAUAUUACGAGCG = 1
AUCGAGCAAUAUUACGCCGG = 1
UCCAAGCAAUAUUACGAUCU = 0
UUAUAGCAAUAUUACGAUGA = 1
CGAUAGCAAUAUUACGACAC = 0
UAGGAGCAAUAUUACGAGAC = 0
UCAUAGCAAUAUUACGUAUA = 0
UUCUAGCAAUAUUACGGAAU = 0
CCAUAGCAAUAUUACGGUGC = 0
GCUAAGCAAUAUUACGCCCU = 1
GCAAAGCAAUAUUACGCUAC = 0
UAACAGCAAUAUUACGACGG = 1
CUUCAGCAAUAUUACGGCCG = 1
GCGCAGCAAUAUUACGACUC = 1
AUGCAGCAAUAUUACGGAGG = 0
CGGCAGCAAUAUUACGUAAG = 1
GAUGAGCAAUAUUACGCCCU = 1
UACCAGCAAUAUUACGGUCA = 1
UACUAGCAAUAUUACGUGGA = 0
GUUAAGCAAUAUUACGAAUU = 1

###

EXPERIMENT_NOTES: self-splicing fitness, log relative to wild type (ln ratio); higher = more splicing; Tetrahymena group I intron in knt gene, E. coli kanamycin selection, DiMSum; sequences stand for … in CUCUCU…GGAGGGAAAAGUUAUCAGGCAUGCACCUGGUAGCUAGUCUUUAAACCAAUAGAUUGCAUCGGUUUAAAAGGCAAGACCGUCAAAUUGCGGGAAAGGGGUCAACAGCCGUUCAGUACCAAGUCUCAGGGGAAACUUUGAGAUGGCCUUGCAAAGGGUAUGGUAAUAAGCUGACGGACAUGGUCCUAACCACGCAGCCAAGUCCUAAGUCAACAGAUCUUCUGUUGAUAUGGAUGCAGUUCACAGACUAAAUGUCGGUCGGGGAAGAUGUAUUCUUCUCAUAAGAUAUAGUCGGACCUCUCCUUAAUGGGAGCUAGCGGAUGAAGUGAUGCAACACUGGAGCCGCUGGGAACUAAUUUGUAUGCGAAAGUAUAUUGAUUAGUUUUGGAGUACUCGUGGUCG
REPORTED_CONDITIONS: 30 °C
MEASURED_METRIC: self-splicing fitness (ln)

ACUUAGCAAUAUUACGAUUG = -3.17
GCCUAGCAAUAUUACGCAGG = -4.18
UUUAAGCAAUAUUACGAAUU = -1.6
